subject_of_test: Cathepsin B, purified from human liver (Homo sapiens, UniProt P07858)
Construct: Cathepsin B, purified from human liver; purchased Enzyme Systems Products (Dublin, Calif.); host or cells: human liver (tissue-purified)
procedure_summary: In vitro evaluation of inhibitors with purified cathepsin B
Type: biochemical
experimental_parameters: purified cathepsin B; read-out: IC50 Cat B
Record form. Attribute: pIC50. Fill in for each entry.
pIC50 here: minus log base 10 of the concentration, concentration in moles per litre.

For the compound O=C(COc1cc(=O)oc2ccccc12)[C@H](CCc1ccccc1)NC(=O)[C@H](Cc1ccccc1)NC(=O)N1CCOCC1 , what pIC50 is on record? 7.35

Consider the compound Cc1cc(OCC(=O)[C@H](CCc2ccccc2)NC(=O)[C@H](CC(C)C)NC(=O)N2CCOCC2)cc(=O)o1 and give its measured pIC50. 6.40

pIC50 for Cc1cc(OCC(=O)[C@H](CCCCN)NC(=O)[C@H](Cc2ccccc2)NC(=O)N2CCOCC2)cc(=O)o1 ? 7.60

pIC50 lookup needed for O=C1C=C(OCC(=O)[C@H](CCc2ccccc2)NC(=O)[C@H](Cc2ccccc2)NC(=O)N2CCOCC2)CO1 , thanks. 8.00

Look at this compound and give its reported pIC50. O=C1CC(=O)C(c2ccccc2)=C1OCC(=O)[C@H](CCc1ccccc1)NC(=O)[C@H](Cc1ccccc1)NC(=O)N1CCOCC1 7.03

Fill blank: measured pIC50 of the compound O=C1OC(C(O)CO)C(OCC(=O)C(CCc2ccccc2)NC(=O)C(Cc2ccccc2)NC(=O)N2CCOCC2)=C1O (stereo not drawn) is ____. 6.85

Query (compound): NCCCC[C@H](NC(=O)[C@H](Cc1ccccc1)NC(=O)N1CCOCC1)C(=O)COC1=C(c2ccccc2)C(=O)OC1 ; field requested: pIC50 8.30

Returns the measured pIC50 for the input compound. Input: COc1ccc(C[C@H](NC(=O)N2CCOCC2)C(=O)N[C@@H](CCCCN)C(=O)COc2cc(C)oc(=O)c2)cc1 7.08

Form field: reported pIC50 of CC1CC(OCC(=O)C(CCc2ccccc2)NC(=O)C(Cc2ccccc2)NC(=O)N2CCOCC2)=CC(=O)O1 (stereo not drawn) 6.25
